# credit: ChEMBL document CHEMBL2203245

Target: Kappa-type opioid receptor (Homo sapiens)
Sequence (P41145 whole entry): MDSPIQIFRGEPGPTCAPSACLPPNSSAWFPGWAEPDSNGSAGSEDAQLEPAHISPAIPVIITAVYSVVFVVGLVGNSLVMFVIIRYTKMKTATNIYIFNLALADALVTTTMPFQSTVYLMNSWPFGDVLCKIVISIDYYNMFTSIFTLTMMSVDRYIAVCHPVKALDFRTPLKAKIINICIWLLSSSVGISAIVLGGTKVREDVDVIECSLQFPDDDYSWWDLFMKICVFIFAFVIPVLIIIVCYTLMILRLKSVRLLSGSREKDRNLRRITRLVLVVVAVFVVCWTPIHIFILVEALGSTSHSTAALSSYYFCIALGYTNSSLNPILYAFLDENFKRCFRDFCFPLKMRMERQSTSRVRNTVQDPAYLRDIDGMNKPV
Test: Agonist activity at human kappa opioid receptor expressed in CHO cells assessed as [35S]GTPgammaS binding after 60 mins by scintillation counting
Decide using EC50 alone. Strictly below 300 pM: 1. Equal to or above 300 pM: -1.

COc1ccc(-c2ccc(CCNC(=O)c3ccc4c(c3)C3(C)CCN(CC5CC5)C(C4)C3C)cc2)cc1OC (racemic)	-1
CC1C2Cc3ccc(C(=O)NCCc4ccc(-c5ccccc5O)cc4)cc3C1(C)CCN2CC1CC1 (racemic)	1
COc1cccc(-c2ccc(CCNC(=O)c3ccc4c(c3)C3(C)CCN(CC5CC5)C(C4)C3C)cc2)c1 (racemic)	-1
COc1ccc2cc(CCNC(=O)c3ccc4c(c3)C3(C)CCN(CC5CC5)C(C4)C3C)ccc2c1 (racemic)	-1
CC1C2Cc3ccc(C(=O)NCCc4ccc(-c5ccc6c(c5)OCO6)cc4)cc3C1(C)CCN2CC1CC1 (racemic)	-1
C[C@H]1[C@H]2Cc3ccc(C(=O)NCCc4ccc(-c5ccc(O)cc5)cc4)cc3[C@]1(C)CCN2CC1CC1	1

---

Target: Delta-type opioid receptor (Homo sapiens, UniProt P41143)
Sequence (P41143 whole entry): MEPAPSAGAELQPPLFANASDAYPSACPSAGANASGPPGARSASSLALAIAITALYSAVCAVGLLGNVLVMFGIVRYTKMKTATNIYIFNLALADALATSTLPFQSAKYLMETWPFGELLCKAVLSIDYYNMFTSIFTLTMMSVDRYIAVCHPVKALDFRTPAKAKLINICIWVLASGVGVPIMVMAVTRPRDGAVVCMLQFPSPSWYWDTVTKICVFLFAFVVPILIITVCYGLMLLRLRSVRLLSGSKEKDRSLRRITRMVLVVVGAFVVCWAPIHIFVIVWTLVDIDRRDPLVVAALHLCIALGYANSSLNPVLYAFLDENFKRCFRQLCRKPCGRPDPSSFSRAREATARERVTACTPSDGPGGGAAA
Assay: Partial agonist activity at human delta opioid receptor expressed in CHO cells assessed as [35S]GTPgammaS binding after 60 mins by scintillation counting
Type: functional, cell-based
pEC50: −log10 of the molar value.
READOUT TYPE: pEC50

COc1ccc(-c2ccc(CCNC(=O)c3ccc4c(c3)C3(C)CCN(CC5CC5)C(C4)C3C)cc2)cc1OC (racemic)	8.21
